- MEASUREMENT_DESCRIPTION: Tanguay_ZF_120hpf_YSE_legacy: (Legacy) Oregon State University Tanguay Lab 120 Hour Post-fertilization zebrafish Assay for Yolk Sac Edema (AID 2283634)
Inconclusive results are not listed. Calls of active or inactive are those of the source. How the source made its calls: active means hit-call score of the fitted dose curve at least 0.9, where 1 is the maximum; inconclusive means response in the unintended direction; inactive means score below 0.9.
Would you mind answering with one of these outcomes? active, inactive

Observe how each entry below is paired with its result.
{"columns": ["MOLECULE", "CATEGORY"],
 "data": [
  ["CC(C)(O)c1coc(S(=O)(=O)NC(=O)Nc2c3c(cc4c2CCC4)CCC3)c1", "inactive"],
  ["Nc1ccc(Nc2ccccc2)cc1", "active"],
  ["CC(C)=CCCC(C)=CC=O", "inactive"],
  ["CC(C)CCCCCCCOC(=O)CCCCC(=O)OCCCCCCCC(C)C", "inactive"],
  ["CCCCCCCCCCCCc1ccccc1", "inactive"]
]}

Query: recorded result category for Fc1ccccc1[C@@H](F)COC1CCC(Nc2ncnc3[nH]ncc23)CC1 (stereo partly drawn) in this test
active

Query: recorded result category for `COC(=O)c1c(Cl)c(Cl)c(C(=O)OC)c(Cl)c1Cl` in this test
inactive

###

- MEASUREMENT_DESCRIPTION: Tanguay_ZF_120hpf_TR_legacy: (Legacy) Oregon State University Tanguay Lab 120 Hour Post-fertilization zebrafish Assay for Touch Response (AID 2283667)
Results filed as inconclusive are left out. The source made the active and inactive calls. The calls were made as follows: active = hit-call score of the fitted dose curve at least 0.9, where 1 is the maximum; inconclusive = response in the unintended direction; inactive = score below 0.9.
Would you mind answering with one of these outcomes? 1 for active, -1 for inactive

Observe how each entry below is paired with its result.
{"columns": ["COMPOUND", "CATEGORY"],
 "data": [
  ["CCNc1ccccc1", -1],
  ["Fc1ccccc1[C@@H](F)COC1CCC(Nc2ncnc3[nH]ncc23)CC1 (some centres undefined)", -1],
  ["CC[C@H]1CC[C@H](NCc2cc3c(cc2OC)[C@H]2C[C@H]2C(=O)N3C)[C@H](c2ccccc2)N1", -1],
  ["C1=CCCC=CCCC=CCC1", -1],
  ["CCCN(C1CCN(C(=O)C2CCNCC2)CC1)[C@@H]1CCc2ccc(OC)cc2C1", -1],
  ["Cc1ccc(C)c(O)c1", -1]
]}

Query: recorded result category for `NC(=O)NO` in this test
-1

Query: recorded result category for `CC[C@H](C)C(=O)O[C@H]1C[C@@H](C)C=C2C=C[C@H](C)[C@H](CC[C@@H]3C[C@@H](O)CC(=O)O3)[C@H]21` in this test
-1

Query: recorded result category for `CCOC(=O)CC(CC(=O)OCC)(OC(C)=O)C(=O)OCC` in this test
-1

Query: recorded result category for `COC(=O)CC(=O)OC` in this test
-1

Query: recorded result category for `CCCCCCCCO` in this test
-1

Query: recorded result category for `CC(C)=CCC/C(C)=C\CO` in this test
-1

Query: recorded result category for `CCC(C)(C)C(=O)O[C@H]1C[C@@H](C)C=C2C=C[C@H](C)[C@H](CC[C@@H]3C[C@@H](O)CC(=O)O3)[C@H]21` in this test
1

Query: recorded result category for CCCCC(CC)COC(=O)c1ccc(C(=O)OCC(CC)CCCC)cc1 (centres undefined) in this test
-1

Query: recorded result category for CC(C)=CCCC(C)CCO (centres undefined) in this test
-1

Query: recorded result category for `Cn1c(=O)c2c(ncn2C)n(C)c1=O` in this test
-1

Query: recorded result category for `O=C1CCCCCN1` in this test
-1

Query: recorded result category for `CN(C)c1ccc(Cc2ccc(N(C)C)cc2)cc1` in this test
-1
